Assign pIC50 to each entry below.
molecular target: Voltage-gated inwardly rectifying potassium channel KCNH2 (Homo sapiens); assay: Inhibition of MK499 binding to human ERG
Sequence (Q12809 whole entry): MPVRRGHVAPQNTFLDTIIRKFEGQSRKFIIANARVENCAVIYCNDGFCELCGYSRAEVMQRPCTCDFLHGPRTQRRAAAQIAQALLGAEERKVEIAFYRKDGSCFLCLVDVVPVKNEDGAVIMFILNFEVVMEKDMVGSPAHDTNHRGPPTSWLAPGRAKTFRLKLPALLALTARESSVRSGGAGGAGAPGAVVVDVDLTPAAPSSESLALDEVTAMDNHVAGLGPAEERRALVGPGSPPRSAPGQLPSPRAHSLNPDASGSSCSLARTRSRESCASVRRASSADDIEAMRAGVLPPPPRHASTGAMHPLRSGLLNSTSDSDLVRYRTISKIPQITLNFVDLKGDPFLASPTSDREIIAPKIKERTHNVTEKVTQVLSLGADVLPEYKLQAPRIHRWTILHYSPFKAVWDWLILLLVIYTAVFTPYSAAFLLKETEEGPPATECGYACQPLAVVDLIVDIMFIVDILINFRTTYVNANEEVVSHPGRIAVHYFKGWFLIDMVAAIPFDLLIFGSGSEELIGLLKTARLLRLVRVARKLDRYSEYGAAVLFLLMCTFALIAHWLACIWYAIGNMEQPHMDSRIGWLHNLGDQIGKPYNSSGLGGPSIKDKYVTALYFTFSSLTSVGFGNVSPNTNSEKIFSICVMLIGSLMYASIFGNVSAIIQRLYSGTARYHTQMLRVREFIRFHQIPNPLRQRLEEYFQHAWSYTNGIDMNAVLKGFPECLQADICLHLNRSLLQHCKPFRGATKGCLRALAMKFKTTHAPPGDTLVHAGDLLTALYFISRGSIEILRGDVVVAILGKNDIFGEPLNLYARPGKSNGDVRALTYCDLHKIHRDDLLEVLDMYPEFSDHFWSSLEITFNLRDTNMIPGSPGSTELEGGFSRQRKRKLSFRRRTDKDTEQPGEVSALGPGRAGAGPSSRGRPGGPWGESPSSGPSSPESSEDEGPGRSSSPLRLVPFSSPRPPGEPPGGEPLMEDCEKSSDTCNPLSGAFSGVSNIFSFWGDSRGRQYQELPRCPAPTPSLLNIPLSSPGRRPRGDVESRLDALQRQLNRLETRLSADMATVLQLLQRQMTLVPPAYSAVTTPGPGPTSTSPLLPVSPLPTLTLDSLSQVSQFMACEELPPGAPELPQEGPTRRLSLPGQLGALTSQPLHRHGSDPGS
Entry type: numeric. Quantity: pIC50, the -log10 of concentration in molar units.

Record COc1ccc2ncc(F)c(CCC34CCC(N(C)Cc5ccc6c(n5)NC(=O)CO6)(CC3)CO4)c2n1 . Reported pIC50: 5.92

Entry COc1ccc2ncc(F)c(CCC34CCC(NCc5ccc6c(n5)NC(=O)C(C)(C)O6)(CC3)CO4)c2n1 — recorded pIC50 = 5.52
